# Experiment Notes: reversal of MRP1-mediated doxorubicin resistance, pilot screen, H69AR cells, doxorubicin co-treatment (AID 601)
# Measurement Conditions: H69AR cells + 2 uM doxorubicin, CellTiter-Glo, 72 h; at 10 µM; stronger effect = higher value
Measured Parameter: differential viability (reversal) (%)
Dear colleague, please return just the value in %, with no unit written.

Query: Consider the compound CCN(CC)C(=O)c1ccc(O)c(OC)c1 and give its measured differential viability (reversal).
Result: 0.23

Query: Consider the compound COc1ccc(CN(C(=O)CN2C(=O)COc3ccccc32)C2CCCC2)c(OC)c1 and give its measured differential viability (reversal).
Result: 4.62

Query: Consider the compound Nc1nc(SCc2nc3scc(-c4cccs4)c3c(=O)[nH]2)n[nH]1 and give its measured differential viability (reversal).
Result: -3.9

Query: Consider the compound CCN(CC(=O)Nc1ccc2c(c1)CCC2)Cc1nc2ccccc2c(=O)[nH]1 and give its measured differential viability (reversal).
Result: -13.7

Query: Consider the compound CC(C(=O)O)c1ccc(-c2ccccc2)c(F)c1 (stereo unspecified) and give its measured differential viability (reversal).
Result: -1.62

Query: Consider the compound CCCCCc1c(C)nc(SCC(=O)O)[nH]c1=O and give its measured differential viability (reversal).
Result: 14

---

# Experiment Notes: reversal of MRP1-mediated doxorubicin resistance, pilot screen, H69AR cells, doxorubicin co-treatment (AID 601)
# Measurement Conditions: H69AR cells, CellTiter-Glo, 72 h; compound alone cytotoxicity; at 10 µM
The label Condition met is reserved for viability strictly under 90%; Condition not met covers values equal to or above it.

Query: Determine whether this compound shows viability lower than 90% (ties excluded): CCN(CC)C(=O)CSc1nnc(-c2cc(OC)cc(OC)c2)o1
Result: Condition not met

Query: Determine whether this compound shows viability lower than 90% (ties excluded): CCOc1ccccc1N1C(=O)c2ccc(C(=O)Nc3cccnc3)cc2C1=O
Result: Condition not met

Query: Determine whether this compound shows viability lower than 90% (ties excluded): CCCCc1ccc(NC(=O)N[C@H](C(=O)O)C(C)C)cc1
Result: Condition not met

Query: Determine whether this compound shows viability lower than 90% (ties excluded): Cc1cc(NC(=O)c2ccc3nc(-c4ccccc4)c(-c4ccccc4)nc3c2)no1
Result: Condition met

Query: Determine whether this compound shows viability lower than 90% (ties excluded): N#CC1=C(N)n2c(s/c(=C\c3ccco3)c2=O)=C(C#N)C1c1ccco1 (stereo not given)
Result: Condition met

---

# Experiment Notes: 384-well plate pilot, post-Golgi transport modulator project, inhibition of yeast transport mutant growth (AID 636)
# Measurement Conditions: absorbance 615 nm, about 18 h, stronger effect = higher value
Active and inactive are the calls of the source. Cut-off read from the data, not from the text of the source: active = inhibition above about 31%; inactive = the rest.
Measured Parameter: inhibition

Query: Consider the compound N#Cc1nc(-c2ccccc2Cl)oc1N1CCOCC1 and give its measured inhibition.
Result: -3.47% (inactive)

Query: Consider the compound COc1cc2c(C#N)c(N3CCN(c4ccccc4OC)CC3)nc(N)c2c(N)n1 and give its measured inhibition.
Result: -0.26% (inactive)

Query: Consider the compound O=C(c1ccc(Cl)cc1)N1CCCOC1 and give its measured inhibition.
Result: -8.11% (inactive)

Query: Consider the compound O=C(CCCSc1nc2ccccc2s1)NC1=NCCS1 and give its measured inhibition.
Result: -7.53% (inactive)

Query: Consider the compound CCC(=O)Oc1ccc(C(CC)C(CC)c2ccc(OC(=O)CC)cc2)cc1 (centres undefined) and give its measured inhibition.
Result: -5.32% (inactive)

Query: Consider the compound CN1C(C(=O)Nc2ccccn2)=C(O)c2ccccc2S1(=O)=O and give its measured inhibition.
Result: 0.39% (inactive)

Query: Consider the compound COc1ccc(-c2c(=O)n(OCc3ccccn3)c3ccccc3[n+]2[O-])cc1OC and give its measured inhibition.
Result: -4% (inactive)

Query: Consider the compound O=C(CN(Cc1cccs1)C(=O)CNS(=O)(=O)c1ccccc1)NCc1ccco1 and give its measured inhibition.
Result: 0.13% (inactive)

Query: Consider the compound CNC(=O)NCCN1CCCC1=O and give its measured inhibition.
Result: -5% (inactive)

Query: Consider the compound O=C(COc1ccc(Cl)cc1)Nc1ncccn1 and give its measured inhibition.
Result: -1.05% (inactive)

Query: Consider the compound CC(=O)c1n[nH]nc1NC(=O)c1ccccc1 and give its measured inhibition.
Result: -1.69% (inactive)

Query: Consider the compound O=C(O)c1cccc(NC(=O)C2C3C=CC(C3)C2C(=O)OCC(F)(F)C(F)F)c1 (centres undefined) and give its measured inhibition.
Result: -5.79% (inactive)

Query: Consider the compound Cc1cccc2cc(C(c3nnnn3C(C)(C)C)N3CCN(C(=O)c4ccco4)CC3)c(=O)[nH]c12 (centres undefined) and give its measured inhibition.
Result: -6.32% (inactive)

Query: Consider the compound CC1=C(C(=O)Nc2ccccc2C)C(c2ccc(C)o2)N2C(=O)CSC2=N1 (centres undefined) and give its measured inhibition.
Result: -9.04% (inactive)

Query: Consider the compound c1ccc(-c2nc3ccccc3nc2-c2ccccn2)nc1 and give its measured inhibition.
Result: -1.17% (inactive)

Query: Consider the compound Cc1ccc(NC(=O)c2oc3ccc(S(=O)(=O)N4CCOCC4)cc3c2C)cc1C and give its measured inhibition.
Result: -5.26% (inactive)

Query: Consider the compound O=C(NCC(c1cccnc1)N1CCN(c2ccc(F)cc2)CC1)OCc1ccccc1 (centres undefined) and give its measured inhibition.
Result: -2.57% (inactive)

Query: Consider the compound Cc1ccc(S(=O)(=O)N2CCN(C(=O)CSc3nnnn3C)C2)cc1 and give its measured inhibition.
Result: -0.66% (inactive)

Query: Consider the compound CNc1nnc(-c2cccc(N(C)C)c2)s1 and give its measured inhibition.
Result: -4.55% (inactive)

Query: Consider the compound COc1cc2cc(C(c3nnnn3C3CCCC3)N(C)C3CCCCC3)c(=O)[nH]c2cc1OC (centres undefined) and give its measured inhibition.
Result: -1.3% (inactive)

Query: Consider the compound CC(C)Cn1c(=O)c(C(=O)NCc2ccccn2)c(O)c2ccccc21 and give its measured inhibition.
Result: -7.43% (inactive)

Query: Consider the compound CCCCOC(=O)Cn1c(=N)n(CCN2CCOCC2)c2ccccc21 and give its measured inhibition.
Result: -7.47% (inactive)

Query: Consider the compound COc1ccccc1-c1nnc(SCC(=O)N2CC(C)CC(C)C2)o1 (centres undefined) and give its measured inhibition.
Result: -5% (inactive)

Query: Consider the compound Cc1cc(C)n(CC(=O)NC2CCCCC2)n1 and give its measured inhibition.
Result: -8.49% (inactive)

Query: Consider the compound CCn1cc(C(=O)OCc2ccc(F)cc2)c(=O)c2ccc(C)nc21 and give its measured inhibition.
Result: -2.27% (inactive)

Query: Consider the compound O=S(=O)(c1ccc(N2CCN(c3ccc(F)cc3)CC2)cc1)N1CCCC1 and give its measured inhibition.
Result: -0.91% (inactive)

Query: Consider the compound COc1ccc(-c2noc(C3CCCN(C(=O)CCc4ccccc4)C3)n2)cc1 (centres undefined) and give its measured inhibition.
Result: -1.97% (inactive)

Query: Consider the compound CCN(CC)CCn1c(OC)cc(=O)[nH]c1=O and give its measured inhibition.
Result: -10% (inactive)

Query: Consider the compound COc1cc(CN2CCC(C(=O)NC3CCCC3)CC2)ccc1O and give its measured inhibition.
Result: -4% (inactive)

Query: Consider the compound CCCOc1cccc(NC(=O)c2c(-c3ccccc3)noc2C)c1 and give its measured inhibition.
Result: 0.78% (inactive)

Query: Consider the compound COc1ccccc1CNC(=O)Nc1cccs1 and give its measured inhibition.
Result: -0.78% (inactive)

Query: Consider the compound CC1CCCc2sc3nc(NCc4ccco4)n4ncnc4c3c21 (centres undefined) and give its measured inhibition.
Result: -3.97% (inactive)

Query: Consider the compound Oc1c(Cl)cc(Cl)c2c1NCCC2 and give its measured inhibition.
Result: -2.63% (inactive)

Query: Consider the compound COc1ccc(Cl)cc1NC(=O)CCN1CCN(c2ccccc2C)CC1 and give its measured inhibition.
Result: -8.11% (inactive)

Query: Consider the compound CC[C@]1(O)CC2CN(CCc3c([nH]c4ccccc34)[C@@](C(=O)OC)(c3cc4c(cc3OC)N(C=O)[C@H]3[C@@](O)(C(=O)OC)[C@H](OC(C)=O)[C@]5(CC)C=CCN6CC[C@]43[C@@H]65)C2)C1 (some centres undefined) and give its measured inhibition.
Result: -0.91% (inactive)

Query: Consider the compound CC1(C)S[C@@H]2[C@H](NC(=O)[C@H](N)c3ccccc3)C(=O)N2[C@H]1C(=O)O and give its measured inhibition.
Result: -5.32% (inactive)

Query: Consider the compound Cc1ccc(S(=O)(=O)N2CCCC2)cc1S(=O)(=O)N1CCCC1 and give its measured inhibition.
Result: -3.25% (inactive)

Query: Consider the compound Cn1c(=O)n(CCN2CCOCC2)c(=O)c2c1nc1n2CCN1c1ccccc1 and give its measured inhibition.
Result: 3.51% (inactive)

Query: Consider the compound CN(C)CCC(c1ccc(Br)cc1)c1ccccn1 (centres undefined) and give its measured inhibition.
Result: -2.73% (inactive)

Query: Consider the compound COc1cccc(NC(=O)C2C3C=CC4(O3)C2C(=O)N(C(C)C)C4C(=O)NC2CCCCC2C)c1 (centres undefined) and give its measured inhibition.
Result: 0.26% (inactive)

Query: Consider the compound CCOC(=O)C1CCN(C(=O)Nc2ccc3snnc3c2)CC1 and give its measured inhibition.
Result: -6.08% (inactive)

Query: Consider the compound COc1cc(C(=O)Nc2cc(-c3ccccc3)[nH]n2)cc(OC)c1OC and give its measured inhibition.
Result: -4.27% (inactive)

Query: Consider the compound O=C(Nc1ccccc1)N(Cc1cccnc1)Cc1ccco1 and give its measured inhibition.
Result: -4.74% (inactive)

Query: Consider the compound O=C(NCc1ccc2c(c1)OCO2)c1cccc2c1C(=O)N(C1CCCCC1)C2 and give its measured inhibition.
Result: -0.38% (inactive)
